B1: glmS ribozyme (parent)
chain: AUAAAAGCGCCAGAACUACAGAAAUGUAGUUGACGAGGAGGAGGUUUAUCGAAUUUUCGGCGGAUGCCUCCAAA

Variants of: B1
TEST METHOD NOTES: self-cleavage kobs at 10000 uM GlcN6P; higher = faster cleavage; RNA array
RUN PARAMETERS: with glucosamine-6-phosphate
Fewer inactive variants are shown than the library holds.
Recorded self-cleavage kobs at 10000 uM GlcN6P determines the group label, using lower: < 0.0001 s⁻¹; middle: ≥ 0.0001 s⁻¹ and < 0.001 s⁻¹; upper: ≥ 0.001 s⁻¹

A42U U46G C50U C70U = lower
U65G C70A = middle
A39G U55G = upper

// switching to the query variant
Consider G41U G63U . To which self-cleavage kobs at 10000 uM GlcN6P class does it belong?
lower
